target_entity: UniProt:O95271
Sequence (O95271 whole entry, change not shown): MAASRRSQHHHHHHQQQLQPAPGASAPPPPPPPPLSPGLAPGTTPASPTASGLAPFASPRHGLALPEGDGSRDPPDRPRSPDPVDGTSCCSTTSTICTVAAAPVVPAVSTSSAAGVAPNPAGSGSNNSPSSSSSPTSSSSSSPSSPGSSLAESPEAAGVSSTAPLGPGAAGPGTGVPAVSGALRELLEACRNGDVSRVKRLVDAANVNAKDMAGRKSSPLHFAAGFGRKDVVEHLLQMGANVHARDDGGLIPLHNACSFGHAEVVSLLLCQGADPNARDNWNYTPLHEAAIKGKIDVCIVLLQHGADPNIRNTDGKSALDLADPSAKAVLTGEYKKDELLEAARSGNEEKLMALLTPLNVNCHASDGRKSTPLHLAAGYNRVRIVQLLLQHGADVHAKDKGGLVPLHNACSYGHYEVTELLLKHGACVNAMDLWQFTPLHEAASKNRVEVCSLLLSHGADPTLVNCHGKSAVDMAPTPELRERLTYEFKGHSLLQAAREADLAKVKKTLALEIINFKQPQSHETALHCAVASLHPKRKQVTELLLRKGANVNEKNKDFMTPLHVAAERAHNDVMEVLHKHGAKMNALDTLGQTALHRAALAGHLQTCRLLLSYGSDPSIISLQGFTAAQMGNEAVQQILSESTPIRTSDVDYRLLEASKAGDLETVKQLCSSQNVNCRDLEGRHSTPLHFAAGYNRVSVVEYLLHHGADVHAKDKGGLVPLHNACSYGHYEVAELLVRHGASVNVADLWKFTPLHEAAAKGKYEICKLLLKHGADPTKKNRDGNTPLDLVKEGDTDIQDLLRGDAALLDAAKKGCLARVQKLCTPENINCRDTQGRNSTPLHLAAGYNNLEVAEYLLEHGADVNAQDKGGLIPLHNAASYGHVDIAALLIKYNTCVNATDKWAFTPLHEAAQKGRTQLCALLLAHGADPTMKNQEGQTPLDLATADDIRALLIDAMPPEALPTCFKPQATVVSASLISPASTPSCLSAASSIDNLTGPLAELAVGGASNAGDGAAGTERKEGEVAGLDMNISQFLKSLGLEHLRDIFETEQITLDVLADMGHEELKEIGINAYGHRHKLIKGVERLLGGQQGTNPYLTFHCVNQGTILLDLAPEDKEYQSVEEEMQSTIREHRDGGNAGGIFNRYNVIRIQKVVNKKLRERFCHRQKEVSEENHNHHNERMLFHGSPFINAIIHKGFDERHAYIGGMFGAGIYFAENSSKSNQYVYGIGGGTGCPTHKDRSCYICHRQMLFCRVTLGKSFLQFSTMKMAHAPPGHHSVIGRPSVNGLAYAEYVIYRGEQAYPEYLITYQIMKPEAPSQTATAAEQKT
assay_overview: hTNKS1 enzyme activity ELISA (poly ADP ribose incorporation into TRF1)
Assay type: biochemical
setup_conditions: Mean ± SEM
observation_type: pIC50
Lab note: report pIC50 as minus log10 of the concentration in molar units, number only.

input: What does the record list as pIC50 for CC(c1ncc(F)cn1)N1CCN(c2nc3c(c(=O)[nH]2)CCCN3C)CC1 (stereo not shown) [Example 5] ?
output: 7.07

* * *

System: EGFP-Axin2 fusion protein
setup_conditions: read-out: Axin2 Stabilization EC50; HEK293 EGFP-Axin2 cells, 24 hours; Mean ± SEM
observation_type: pEC50
Lab note: report pEC50 as minus log10 of the concentration in molar units, number only.

Examples from the recorded data:
- compound: "CC(c1ncccn1)N1CCN(c2nc3c(c(=O)[nH]2)CCCN3C)CC1 (single isomer, unassigned; isomer 2) [Example 9]"
  target_entity: "EGFP-Axin2 fusion protein"
  pEC50: 7.15
- compound: "CN1CCCc2c1nc(N1CCN(Cc3ncc(F)cc3F)CC1)[nH]c2=O"
  target_entity: "EGFP-Axin2 fusion protein"
  pEC50: 6.84

// next entry
input: What does the record list as pEC50 for CN1CCCc2c1nc(N1CCN(Cc3ncc(C(F)(F)F)cn3)CC1)[nH]c2=O ?
output: 6.94

Data origin, for the record: patent US9624218B2
